B1: glmS ribozyme (parent)
chain: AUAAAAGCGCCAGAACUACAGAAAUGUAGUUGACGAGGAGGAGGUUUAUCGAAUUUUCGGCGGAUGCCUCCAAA

variants of: B1; assay: self-cleavage kobs at 160 uM GlcN6P; higher = faster cleavage; RNA array; conditions: with glucosamine-6-phosphate
This sample holds only a part of the variants without activity.
Measurement Name: self-cleavage kobs at 160 uM GlcN6P

These solved cases illustrate the format of a correct answer.
C34A C50U: < 1e-05 s⁻¹
C8A G40C: < 1e-05 s⁻¹
U54G: 0.00365 s⁻¹

Fill in self-cleavage kobs at 160 uM GlcN6P for each of the 8 variants listed.
1. A15G C34A
2. A14U C68U
3. G7U U56A
4. G13C A52G C70G
5. U65A C68A
6. C50G G60A
7. U47A U65G
8. G37U U45A

Resp:
1: < 1e-05 s⁻¹; 2: 6.57e-05 s⁻¹; 3: < 1e-05 s⁻¹; 4: 0.000297 s⁻¹; 5: 5.78e-05 s⁻¹; 6: 7.6e-05 s⁻¹; 7: 0.000236 s⁻¹; 8: < 1e-05 s⁻¹

Fill in self-cleavage kobs at 160 uM GlcN6P for each of the 6 variants listed.
1. C16U A42G
2. A15C U30A
3. G9C A39C
4. C8U A33G
5. G7A G13U
6. G29U G44A

Resp:
1. 0.00221 s⁻¹
2. 0.000667 s⁻¹
3. < 1e-05 s⁻¹
4. < 1e-05 s⁻¹
5. < 1e-05 s⁻¹
6. < 1e-05 s⁻¹

Fill in self-cleavage kobs at 160 uM GlcN6P for each of the 5 variants listed.
1. A6U A33G G41A A64U
2. G41C G43A G44C C68U C71U
3. C61U G63A
4. A6U G35C G62A
5. G43A U54C U69G

Resp:
["< 1e-05 s⁻¹", "< 1e-05 s⁻¹", "< 1e-05 s⁻¹", "< 1e-05 s⁻¹", "< 1e-05 s⁻¹"]
